These measurements were taken from ChEMBL document CHEMBL5724914.

assay.method.text: The drug is tested on Z-006 corresponding to mouse gut metagenome with ENA study accession number: PRJEB37062 and ENA sample accession number: ERS12561806 for biotransformation under anaerobic condition. The drug concentrations were measured over 9 timepoints collected between 0 and 24 hours of incubation by liquid-chromatography-coupled mass spectrometry (LC–MS); further: call rule not given here
protocol.conditions: 2 µM
endpoint.label: Bacterial Biotransformation

>>> df
                                   molecule                    result
0    COC1=C(OC)C(=O)C(CCCCCCCCCCO)=C(C)C1=O      Compound metabolized
1  O=C1CCc2ccc(OCCCCN3CCN(c4cccc(Cl)c4Cl)CC3)cc2N1      Compound metabolized
2  CSc1ccc2c(c1)C(N1CCN(C)CC1)Cc1ccccc1S2.O=C(O)/C=C\C(=O)O (centres undefined)      Compound metabolized
3  CCOC(=O)[C@H](CCc1ccccc1)N[C@@H](C)C(=O)N1CCC[C@H]1C(=O)O.O=C(O)/C=C\C(=O)O [ENALAPRIL MALEATE]  Compound NOT metabolized
4  CCN(CC)C(=O)C1(c2ccccc2)CC1CN (centres undefined)  Compound NOT metabolized
5  Cc1ccc(NC(=O)c2ccc(CN3CCN(C)CC3)cc2)cc1Nc1nccc(-c2cccnc2)n1  Compound NOT metabolized
6  Br.COc1ccc2c(c1)[C@]13CCCC[C@@H]1[C@H](C2)N(C)CC3.O [DEXTROMETHORPHAN HYDROBROMIDE]  Compound NOT metabolized
7  O=C(NC(Cc1cc(=O)[nH]c2ccccc12)C(=O)O)c1ccc(Cl)cc1 (centres undefined) [REBAMIPIDE]  Compound NOT metabolized
8  CCN(C)C(=O)Oc1cccc([C@H](C)N(C)C)c1.O=C(O)C(O)C(O)C(=O)O [RIVASTIGMINE TARTRATE]  Compound NOT metabolized

====

assay.method.text: The drug is tested on Z-003 corresponding to pig gut metagenome with ENA study accession number: PRJEB37062 and ENA sample accession number: ERS12561803 for biotransformation under anaerobic condition. The drug concentrations were measured over 9 timepoints collected between 0 and 24 hours of incubation by liquid-chromatography-coupled mass spectrometry (LC–MS)
protocol.conditions: 2 µM
endpoint.label: Bacterial Biotransformation

>>> print(df.to_string())
                                   molecule                result
0   CCc1oc2ccccc2c1C(=O)c1cc(Br)c(O)c(Br)c1  Compound metabolized
1  CC(C)[C@H]1CC[C@H](C(=O)N[C@H](Cc2ccccc2)C(=O)O)CC1 [NATEGLINIDE]  Compound metabolized

====

protocol.conditions: human gut metagenome, 24 h, 2 µM
endpoint.label: Bacterial Biotransformation

In [3]: df
Out[3]:
                                    molecule               endpoint_label                    result
 0  N#Cc1ccc2[nH]cc(CCCCN3CCN(c4ccc5oc(C(N)=O)cc5c4)CC3)c2c1 [VILAZODONE]  Bacterial Biotransformation      Compound metabolized
 1  CC(=O)CCCCn1c(=O)c2c(ncn2C)n(C)c1=O [PENTOXIFYLLINE]  Bacterial Biotransformation  Compound NOT metabolized
 2  CC(C)NCC(O)COc1ccc(CC(N)=O)cc1 (configuration not stated) [ATENOLOL]  Bacterial Biotransformation  Compound NOT metabolized
 3  CC(C)(C)NCC(O)COc1cccc2c1CC(O)C(O)C2 (configuration not stated) [NADOLOL]  Bacterial Biotransformation  Compound NOT metabolized
 4  O=C1N=C([O-])NC1(c1ccccc1)c1ccccc1.[Na+] [PHENYTOIN SODIUM]  Bacterial Biotransformation      Compound metabolized
 5  O=C(O)c1cc(/N=N/c2ccc(S(=O)(=O)Nc3ccccn3)cc2)ccc1O [SULFASALAZINE]  Bacterial Biotransformation      Compound metabolized
 6  Br.COc1ccc2c(c1)[C@]13CCCC[C@@H]1[C@H](C2)N(C)CC3.O [DEXTROMETHORPHAN HYDROBROMIDE]  Bacterial Biotransformation  Compound NOT metabolized
 7  Nc1nc(N)nc(-c2cc(Cl)ccc2Cl)n1.O=C(O)/C=C\C(=O)O [IRSOGLADINE MALEATE]  Bacterial Biotransformation  Compound NOT metabolized
 8  N#Cc1ccc2c(c1)N(CCCN1CCC(O)CC1)c1ccccc1S2 [PERICIAZINE]  Bacterial Biotransformation  Compound NOT metabolized
 9  OC(c1cc(C(F)(F)F)nc2c(C(F)(F)F)cccc12)C1CCCCN1 (configuration not stated) [MEFLOQUINE]  Bacterial Biotransformation  Compound NOT metabolized
10  CC(NC(C)(C)C)C(=O)c1cccc(Cl)c1 (configuration not stated) [BUPROPION]  Bacterial Biotransformation  Compound NOT metabolized
11  O=C(NC(Cc1cc(=O)[nH]c2ccccc12)C(=O)O)c1ccc(Cl)cc1 (configuration not stated) [REBAMIPIDE]  Bacterial Biotransformation  Compound NOT metabolized
